# target: human Dopamine D2L receptor (Homo sapiens)
# Construct: expressed in transfected cells; host or cells: CHO cells (membranes)
# Sequence (P14416 whole entry): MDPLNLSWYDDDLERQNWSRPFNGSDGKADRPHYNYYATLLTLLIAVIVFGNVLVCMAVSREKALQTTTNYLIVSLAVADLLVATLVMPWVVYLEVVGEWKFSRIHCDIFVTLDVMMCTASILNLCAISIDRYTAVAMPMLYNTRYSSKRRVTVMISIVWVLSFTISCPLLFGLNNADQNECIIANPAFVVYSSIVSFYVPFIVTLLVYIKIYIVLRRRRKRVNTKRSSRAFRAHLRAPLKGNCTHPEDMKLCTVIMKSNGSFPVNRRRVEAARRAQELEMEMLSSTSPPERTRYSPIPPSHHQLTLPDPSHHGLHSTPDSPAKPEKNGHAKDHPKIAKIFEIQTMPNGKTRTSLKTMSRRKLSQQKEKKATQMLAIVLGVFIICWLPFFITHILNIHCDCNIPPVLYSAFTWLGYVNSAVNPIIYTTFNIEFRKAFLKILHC
# procedure-summary: In vitro binding affinity for human D2L receptor ([3H]Spiperone)
# experimental-context: human D2L-transfected CHO cell membranes, [3H]Spiperone; read-out: D2L pIC50 (converted)
# Method: Frozen membranes of human Dopamine D2L receptor-transfected CHO cells were thawed, briefly homogenized using an Ultra-Turrax T25 homogenizer and diluted in Tris-HCl assay buffer containing NaCl, CaCl2, MgCl2, KCl ([…] respectively, adjusted to pH 7.7 with HCl) to an appropriate protein concentration optimized for specific and non-specific binding. […] Percentage specific bound and competition binding curves were calculated using S-Plus software (Insightful). […]
attribute-measured: log10(IC50) (log10 of the value in nM)

{"columns": ["compound", "attribute-measured", "assay-value"],
 "data": [
  ["OC(Cc1ccccc1)CN1CCN(CC2CC3c4ccccc4Cc4ccc(F)cc4C3O2)CC1 (stereo not drawn)", "log10(IC50)", 0.66],
  ["CCCCOC(=O)N1CCN(C[C@H]2C[C@@H]3c4ccccc4Cc4ccc(F)cc4[C@H]3O2)CC1", "log10(IC50)", 1.23],
  ["CCCCC(O)CN1CCN(CC2CC3c4ccccc4Cc4ccc(F)cc4C3O2)CC1 (stereo not drawn)", "log10(IC50)", 0.78],
  ["CC(C)C(=O)N1CCN(C[C@H]2C[C@@H]3c4ccccc4Cc4ccc(F)cc4[C@H]3O2)CC1", "log10(IC50)", 1.54],
  ["CC1CCCN1C[C@H]1C[C@@H]2c3ccccc3Cc3ccc(F)cc3[C@H]2O1 (mixture of isomers)", "log10(IC50)", 1.61],
  ["CC(C)CN1CCN(C[C@H]2C[C@@H]3c4ccccc4Cc4ccc(F)cc4[C@H]3O2)CC1", "log10(IC50)", 1.09],
  ["OCCN1CCN(C[C@H]2C[C@@H]3c4ccccc4Sc4ccc(F)cc4[C@H]3O2)CC1", "log10(IC50)", 0.30],
  ["CCOC(=O)N1CCN(C[C@H]2C[C@@H]3c4ccccc4Cc4ccc(F)cc4[C@H]3O2)CC1", "log10(IC50)", 1.52],
  ["Fc1ccc2c(c1)[C@H]1O[C@@H](CN3CCN(CC(c4ccccc4)c4ccccc4)CC3)C[C@@H]1c1ccccc1C2", "log10(IC50)", 1.98]
]}
